The values you see were collected from patent US20240247080A1.

Give measured EC50 for each item. Keep answers brief.
target: hGLP1R (Homo sapiens); construct: expressed in transfected cells; host or cells: HEK-293 cells carrying a CRE-luciferase reporter gene; experiment: hGLP1R CreLuc reporter gene assay in 0.5% and 100% plasma; assay type: cell-based; details: CreLuc reporter gene assay, 0.5% human plasma; read-out: hGLP1R 0.5% hP
Sequence (P43220 24-463): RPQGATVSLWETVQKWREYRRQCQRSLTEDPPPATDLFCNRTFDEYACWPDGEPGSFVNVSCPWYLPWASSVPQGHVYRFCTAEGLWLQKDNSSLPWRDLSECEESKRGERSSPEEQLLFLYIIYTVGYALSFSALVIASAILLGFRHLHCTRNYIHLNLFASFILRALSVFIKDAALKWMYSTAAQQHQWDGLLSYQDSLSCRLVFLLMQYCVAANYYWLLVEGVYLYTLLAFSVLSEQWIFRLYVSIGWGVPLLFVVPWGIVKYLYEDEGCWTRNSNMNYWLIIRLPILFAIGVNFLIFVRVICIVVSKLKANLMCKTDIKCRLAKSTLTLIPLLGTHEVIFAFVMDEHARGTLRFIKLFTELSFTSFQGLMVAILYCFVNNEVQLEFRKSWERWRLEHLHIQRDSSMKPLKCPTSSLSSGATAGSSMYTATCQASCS
Starred links: 1 amine or outer side, 2 acyl side, 3 side chain; linkers in the order of their positions; H or OH if unused. Non-standard residues stand in square brackets, D forms with d. Groups on a side chain read outwards from the residue. *: point of attachment. C20 diacid = O=C(O)CCCCCCCCCCCCCCCCCCC(=O)*; C18 diacid = O=C(O)CCCCCCCCCCCCCCCCC(=O)*; γGlu = O=C(O)[C@H](CCC(=O)[*:2])N[*:1]; εLys = N[C@@H](CCCCN[*:1])C(=O)[*:2]; AEEA = NCCOCCOCC(=O)O; Aib = CC(C)(N)C(=O)O

Request: Specify reported EC50 for the substance shown: H-Y[Aib]EGTFTSDYSI[Aib]LEKQAQ[Aib]AFVEWLIK([εLys-γGlu-γGlu-γGlu-γGlu-γGlu-γGlu-C20 diacid])GGPSEPQSIRHYYNWLTRQRY-NH2 [Compound 48]
Response: 0.07 nM

Request: Specify reported EC50 for the substance shown: H-Y[Aib]EGTFTSDYSI[Aib]LEKQAQ[Aib]AFVEWLIK([AEEA-AEEA-γGlu-γGlu-γGlu-γGlu-C18 diacid])GGPSSPASLRHYYNWLTRQRY-NH2 [Compound 158]
Response: 0.09 nM

Request: Specify reported EC50 for the substance shown: H-Y[Aib]EGTFTSDYSI[Aib]LEKQAQ[Aib]AFVQWLIK([AEEA-AEEA-γGlu-γGlu-γGlu-γGlu-C18 diacid])GGPEEGASLRHYYNWLTRQRY-NH2 [Compound 146]
Response: 0.14 nM

Request: Specify reported EC50 for the substance shown: H-Y[Aib]EGTFTSDYSI[Aib]LEKQAQ[Aib]AFVEWLIK([εLys-γGlu-γGlu-γGlu-γGlu-γGlu-γGlu-C20 diacid])GGPSSGASLRHY[Aib]NWLTRQRY-NH2 [Compound 184]
Response: 0.18 nM

Request: Specify reported EC50 for the substance shown: H-Y[Aib]EGTFTSDYSI[Aib]LEKQAQ[Aib]AFVEWLIK([εLys-γGlu-γGlu-γGlu-γGlu-γGlu-γGlu-C20 diacid])GGPSEGQSIRHYYNWLTRQRY-NH2 [Compound 134]
Response: 0.1 nM
